// data source = patent US20260306527A1

# target or system: PRMT8 (Homo sapiens, UniProt Q9NR22)
# Sequence (Q9NR22 whole entry, species assumed): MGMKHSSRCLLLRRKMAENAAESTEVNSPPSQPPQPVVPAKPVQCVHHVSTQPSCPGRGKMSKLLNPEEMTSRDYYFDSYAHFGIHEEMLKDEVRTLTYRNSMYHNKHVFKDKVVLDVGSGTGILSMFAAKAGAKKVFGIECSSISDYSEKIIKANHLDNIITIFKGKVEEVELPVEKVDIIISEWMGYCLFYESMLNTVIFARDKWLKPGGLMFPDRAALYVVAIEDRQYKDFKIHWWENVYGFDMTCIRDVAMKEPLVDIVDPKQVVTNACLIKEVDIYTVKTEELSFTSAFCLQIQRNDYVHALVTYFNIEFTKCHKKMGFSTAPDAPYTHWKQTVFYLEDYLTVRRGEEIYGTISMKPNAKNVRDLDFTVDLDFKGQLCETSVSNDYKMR
# test summary: radioactive assay (Reaction Biology Corp.), inhibition of PRMT8
# Format: biochemical
I'd be grateful if you could share measured inhibition at 10 µM for these entries.

1. Nc1ncnc2c1ncn2[C@@H]1O[C@H](CSCCNC(=O)NCc2ccc(F)cc2)[C@@H](O)[C@H]1O [Compound 7d]; 8%

Count: 4. Required value per item: inhibition at 10 µM.
1. N=C(NCCCSC[C@H]1O[C@@H](n2cnc3c(N)ncnc32)[C@H](O)[C@@H]1O)Nc1cccc(-c2ccc(F)cc2F)c1 [Compound 6k]
2. N=C(NCCCSC[C@H]1O[C@@H](n2cnc3c(NCCCc4ccccc4)ncnc32)[C@H](O)[C@@H]1O)Nc1ccccc1 [Compound 19j]
3. Nc1ncnc2c1ncn2[C@@H]1O[C@H](CSCCNC(=O)NCc2ccc(-c3cn[nH]c3)cc2)[C@@H](O)[C@H]1O [Compound 8g]
4. Nc1ncnc2c1ncn2[C@@H]1O[C@H](CSCCOc2ccc(-c3ccncc3)cc2)[C@@H](O)[C@H]1O [Compound 14h]

1. 99%
2. 86%
3. 5%
4. 15%

// input: 2 compounds below; output: inhibition at 10 µM for each
1. N=C(NCCCSC[C@H]1O[C@@H](n2cnc3c(NCCCc4ccccc4)ncnc32)[C@H](O)[C@@H]1O)NCC1CC1 [Compound 19f]
2. N=C(NCCSC[C@H]1O[C@@H](n2cnc3c(N)ncnc32)[C@H](O)[C@@H]1O)Nc1cccc(I)c1 [Compound 5c]

74%
99%
